Give DC50 for every item shown.
Target: HiBit-KRAS^G12C (Homo sapiens, UniProt P01116, G12C)
Sequence (P01116 1-186 isoform P01116-2 G12C limits assumed): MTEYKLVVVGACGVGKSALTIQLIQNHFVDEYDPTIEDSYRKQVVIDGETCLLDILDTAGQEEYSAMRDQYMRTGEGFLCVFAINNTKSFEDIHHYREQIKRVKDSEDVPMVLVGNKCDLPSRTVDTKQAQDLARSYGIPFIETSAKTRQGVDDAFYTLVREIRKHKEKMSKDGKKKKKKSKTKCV
Test: HiBit degradation assay in MiaPaCa-2 HiBit-KRas^G12C cells
Type: cell-based
Conditions: read-out: KRas^G12C-HiBiT (MiaPaCa; 0.5% DMSO) IC50; MiaPaCa-2 HiBit-KRas^G12C cells; 0.5% DMSO; 24 hours
Method: Reagents. SW1573 (CRL-2170) and MiaPaCa-2 (CRL-1420) cells were purchased from ATCC. Both cell lines are […] for the G12C mutation in KRAS. […] Either SW1573 HiBit-KRas^G12C or MiaPaCa-2 HiBit-KRas^G12C cells were plated at 9000 cells/well in a 384 well plate (Corning #3770). […] Plates were then allowed to equilibrate to room temperature and fluorescence was measured using a Perkin-Elmer EnVision. […]

COMPOUND	PROPERTY NAME	RESULT
C=CC(=O)N1CCN(c2nc(OCCN3CCC(COc4cc([C@H](C(=O)N5C[C@H](O)C[C@H]5C(=O)N[C@@H](C)c5ccc(C#N)cc5)C(C)C)on4)CC3)nc3c(F)c(-c4cc(O)cc5ccccc45)c(Cl)cc23)C[C@@H]1CC#N	DC50	100 to 1000 nM
C=C(F)C(=O)N1CCN(c2nc(OCCN3CCC(F)(COc4cc([C@H](C(=O)N5C[C@H](O)C[C@H]5C(=O)N[C@@H](C)c5ccc(-c6ccnn6C)cc5)C(C)C)on4)CC3)nc3c(F)c(-c4cc(O)cc5ccccc45)c(Cl)cc23)C[C@@H]1CC#N (atropisomer, axis not shown)	DC50	< 100 nM
C=C(F)C(=O)N1CCN(c2nc(OCCN3CCC(C)(COc4cc([C@@H](C(=O)N5C[C@H](O)C[C@H]5C(=O)N[C@@H](C)c5ccc(-c6ccnn6C)cc5)C(C)C)on4)CC3)nc3c(F)c(-c4cc(O)cc5ccccc45)c(Cl)cc23)C[C@@H]1CC#N (atropisomer, axis not shown)	DC50	> 1000 nM
C=CC(=O)N1CCN(c2nc(OC[C@@H]3CCN(CCCOCC(=O)N[C@H](C(=O)N4C[C@H](O)C[C@H]4C(=O)N[C@@H](C)c4ccc(-c5scnc5C)cc4)C(C)(C)C)C3)nc3c(F)c(-c4cc(O)cc5ccccc45)c(Cl)cc23)C[C@@H]1CC#N	DC50	> 1000 nM
C=CC(=O)N1CCN(c2nc(OCCN3CCC(COc4cc([C@H](C(=O)N5C[C@H](O)C[C@H]5C(=O)N[C@@H](C)c5ccc(-c6scnc6C)cc5)C(C)C)on4)CC3)nc3c(F)c(-c4cc(O)cc5ccccc45)c(Cl)cc23)C[C@@H]1CC#N (atropisomer, axis not shown) [Compound 104]	DC50	100 to 1000 nM

Field: DC50. Fill in for each record below.
1. C=CC(=O)N1CCN(c2nc(OCCN3CCC(COCC(=O)N[C@H](C(=O)N4C[C@H](O)C[C@H]4C(=O)N[C@@H](C)c4ccc(-c5scnc5C)cc4)C(C)(C)C)CC3)nc3c(F)c(-c4cc(O)cc(C)c4C)c(Cl)cc23)C[C@@H]1CC#N
2. C=C(F)C(=O)N1CCN(c2nc(OCCN3CCC(COc4cc([C@@H](C(=O)N5C[C@H](O)C[C@H]5C(=O)N[C@@H](C)c5ccc(-c6ccnn6C)cc5)C(C)C)on4)CC3)nc3c(F)c(-c4cc(O)cc5ccccc45)c(Cl)cc23)C[C@@H]1CC#N

1: 100 to 1000 nM; 2: > 1000 nM
